Just for reference, the OligoGym collection is where these values come from.

Target of assay: GPR173
Measurement description: pooled miR-30 sensor sort-seq; sequence = guide strand
Details: shRNA
Recorded sensor-assay potency score (higher = more potent) values for a group of sequences are listed next.
Respond with the number and no other words.

1. TAGCGGGTGACGCTGATGCAGA; -1.36
2. TGCACTGGCTTCATCTTGCGGT; -0.396
3. AAGGCCACAATCTTGCAGCTGA; 0.463
4. TCACGCACATAATCAGTCCTAG; -0.629
5. ATAAAGGCCACAATCTTGCAGC; -0.595
6. TTCACCCTTGACCTCGTCCATG; -1.32
7. TGAAGGTCCATGAAGAGCCGTG; -0.497

Here is the next item to consider.
Lookup: # return recorded sensor-assay potency score (higher = more potent) for entry `TAAACTTGTAGGTGCCCACGTC`
Found: 0.745
